- assay.info: NCI Yeast Anticancer Drug Screen. Data for the rad50EPP+ strain (AID 151);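 also: 0% = growth of vehicle-treated control cultures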
- measurement.conditions: S. cerevisiae rad50 mutant strain, at 33.0 µM, active compounds read high
The panel holds about 79,000 compounds, 15% with a hit somewhere; the sample as a whole holds those more often.
property.label: growth inhibition (%)
Kindly provide the numeric value in % only, without the unit symbol.

Record excerpt, results attached:
- line.notation: "CC1=Cc2ccc(C)cc2C(=O)C1=O"
  growth inhibition (%): 95
- line.notation: "O=C(O)[C@H]1[C@@H](C2CCCCC2)O[C@@H](C2CCCCC2)O[C@H]1C(F)(F)F"
  growth inhibition (%): -2

Turning now to a further compound:
Input line: Tell me its growth inhibition given O=C(Nn1c(-c2ccccc2)nc2ccccc2c1=O)c1ccc(Cl)cc1 as the entry.
Output line: 16

----------
- assay.info: NCI Yeast Anticancer Drug Screen. Data for the mlh1 strain (AID 171);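 also: 0% = growth of vehicle-treated control cultures of the same strain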
- measurement.conditions: S. cerevisiae mlh1 strain growth inhibition; at 100.0 µM; active compounds read high
About 79,000 compounds went through this panel and 15% of them were active in at least one assay; those are over-represented in the sample as a whole. Activity calls are given as the source filed them. Rule as the data show it: active = growth inhibition above about 70%; inactive = the rest.
property.label: growth inhibition

- molecule: "OC(c1ccc(Br)cc1)(c1cccs1)C1CC1 (stereo not given)"
  property.label: "growth inhibition"
  result: "95% (active)"
- molecule: "Cc1ccnc(NS(=O)(=O)c2ccc(Nc3c4ccccc4nc4ccccc34)cc2)n1"
  property.label: "growth inhibition"
  result: "84% (active)"
- molecule: "O=C(Cc1ccccc1)c1ccc(O)cc1"
  property.label: "growth inhibition"
  result: "89% (active)"
- molecule: "CCOC(=O)C1=C(C)NC(C)=C(C(=O)OCC)C1c1ccc(Cl)cc1"
  property.label: "growth inhibition"
  result: "92% (active)"

Input line: Using known records, supply growth inhibition for C[Si](C)(C)Cc1ccccc1C(=O)O
Output line: 99% (active)

----------
- assay.info: NCI Yeast Anticancer Drug Screen. Data for the rad14 strain (AID 159);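 also: 0% = growth of vehicle-treated control cultures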
- measurement.conditions: S. cerevisiae rad14 strain growth inhibition; at 1.2 µM; active compounds read high
Compounds without any hit were thinned out: in the full panel of roughly 79,000, 15% have a hit. Calls of active or inactive are those of the source. No stated cut-off is given here; in the data, active means growth inhibition above about 70%; inactive means the rest.
property.label: growth inhibition

- compound: "Nc1c([N+](=O)[O-])cc2c3c(cccc13)CC2"
  growth inhibition: "11% (inactive)"

Input line: // Input: CN(C)N1C(=O)SCC(c2ccccc2)(c2ccccc2)C1=O . Output its growth inhibition only.
Output line: 1% (inactive)

Input line: Specify growth inhibition for c1ccc(C2=NNC3c4ccccc4-c4ccccc4N3C2)cc1 (centres undefined) and stop.
Output line: -5% (inactive)

Input line: Answer with the recorded growth inhibition of CCOc1ccc2ccc3cccnc3c2n1 only.
Output line: -4% (inactive)

----------
- assay.info: NCI Yeast Anticancer Drug Screen. Data for the sgs1 strain (AID 173);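 also: 0% = growth of vehicle-only control cultures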
- measurement.conditions: S. cerevisiae sgs1 mutant, at 33.0 µM, active compounds read high
The panel holds about 79,000 compounds, 15% with a hit somewhere; the sample as a whole holds those more often.
property.label: growth inhibition (%)
Give just the number in %; leave the unit off.

Input line: Give recorded growth inhibition. Oc1ccc(Br)cc1C=Nc1cccc(C(F)(F)F)c1
Output line: 94

Input line: For the molecule Cc1cnc(/C=N\NC(N)=S)c2cccc(N)c12 , give its reported growth inhibition.
Output line: 49

Input line: Report growth inhibition for CN(C)CCNC(=O)c1cccc2nc3c4ccccc4c4ccccc4c3nc12
Output line: 98

Input line: Provide only the value of recorded growth inhibition for COc1ccc(/C(=N/O)c2ccccc2C2=Nc3ccccc3C(NCc3ccccc3)O2)cc1C (stereo unspecified)
Output line: 45

Input line: Specify reported growth inhibition for the molecule shown: COc1ccc2c(C)cc(N/N=C/c3sccc3C)nc2c1
Output line: 88

Input line: Find the measured growth inhibition of CCCCCCCCCCCCCCCCCN and report it.
Output line: 97

Input line: Indicate the recorded growth inhibition value for this molecule: O=C(CCC(=O)c1ccc(O)cc1)Oc1ccc(O)cc1
Output line: 4

Input line: Determine from records and report growth inhibition for C[n+]1c(-c2ccc(NC(=O)c3ccc(C(=O)Nc4ccc(-c5cn6ccccc6[n+]5C)cc4)cc3)cc2)cn2ccccc21
Output line: 83

Input line: Please supply the value of reported growth inhibition for the item Nc1c([N+](=O)[O-])cc2c3c(cccc13)CC2
Output line: 45

Input line: Provide only the value of recorded growth inhibition for Cc1cnccc1N=Nc1ccc(N(C)C)cc1
Output line: 52

----------
- assay.info: NCI Yeast Anticancer Drug Screen. Data for the rad18 strain (AID 177)
- measurement.conditions: S. cerevisiae rad18 mutant growth inhibition; at 11.0 µM
The panel holds about 79,000 compounds, 15% with a hit somewhere; the sample as a whole holds those more often. The source made the active and inactive calls. Cut-off read from the data, not from the text of the source: active = growth inhibition above about 70%; inactive = the rest.
Would you mind answering with one of these outcomes? active, inactive

Consider the following illustrative entries.
- molecule: "O=C(Cc1ccccc1F)NC1=C(Cl)C(=O)c2ccccc2C1=O"
  group: "inactive"
- molecule: "CC[C@@]1(OC(=O)CN(C)C)C(=O)OCc2c1cc1n(c2=O)Cc2cc3ccccc3nc2-1"
  group: "inactive"
- molecule: "O=C1c2ccccc2-c2ccc(NC(=O)C3CCCCC3C(=O)O)cc21 (stereo not drawn)"
  group: "inactive"
- molecule: "COc1ccc2c(Cc3c4ccccc4cc4ccccc34)cncc2c1O"
  group: "inactive"
- molecule: "CC1(C)CC(=O)C(C(CC(c2ccccc2)c2cc3c(cc2O)OCO3)C2=C(O)CC(C)(C)CC2=O)=C(O)C1 (stereo not drawn)"
  group: "inactive"

Input line: Which result was noted for this molecule in the test: Cc1ccc2nc(N/N=C/c3ccc(C)s3)cc(C)c2c1
Output line: inactive

Input line: Dear colleague, could you share the recorded outcome for CC(C)c1ccc(C2NC(=S)NC3=C2c2ccccc2C3=O)cc1 (stereo not drawn) when you have a moment?
Output line: inactive

Input line: // param item: S=c1[nH]nc(Cc2ccccc2)c(=S)[nH]1 ; yields the recorded call
Output line: inactive

Input line: Lab log entry: O=C1c2ccccc2C2CCC1c1ccccc12 (stereo not drawn) — outcome as called in the assay?
Output line: inactive

Input line: Can you look up the reported call for [N-]=[N+]=NC1CC(n2ccc(=O)[nH]c2=O)OC1COC(c1ccccc1)(c1ccccc1)c1ccccc1 (stereo not drawn) for me?
Output line: inactive

Input line: Would you mind telling me which call this test gave c1cc(Nc2ccc3c(c2)OCO3)c2cc(C3CCCCC3)ccc2n1 ?
Output line: inactive

Input line: Please state the recorded outcome for this molecule: NCC(O)CSCc1ccc(Cl)cc1 (stereo not drawn)
Output line: inactive

Input line: Check the results log: what was the call for O=c1[nH]c(=O)n(CCCO)cc1F ?
Output line: inactive

Input line: How was O=C(/C(=C/c1ccccc1)CBr)c1ccccc1 classified in this test?
Output line: active

Input line: Please share the test call associated with O=C(Nc1ccn(C2CC(O)C(COC(c3ccccc3)(c3ccccc3)c3ccccc3)O2)c(=O)n1)c1ccccc1 (stereo not drawn) .
Output line: active

----------
- assay.info: NCI Yeast Anticancer Drug Screen. Data for the mgt1 strain (AID 153)
- measurement.conditions: S. cerevisiae mgt1 mutant growth inhibition; at 1.2 µM; active compounds read high
- Method: Growth inhibition of yeast strains with defined genetic alterations is measured as a screen for potential anti-cancer activity. Selected strains with alterations in DNA damage repair or cell cycle control were exposed to compounds and growth inhibition was measured relative to vehicle treated controls. The strain used in this assay is mgt1
The panel holds about 79,000 compounds, 15% with a hit somewhere; the sample as a whole holds those more often.
property.label: growth inhibition (%)
Reply with just the number (in %).

Past entries and their recorded results:
- compound: "CC[N+]1(C)CCC(O)(/C=C/c2ccc(Cl)c(Cl)c2)C(C(=O)/C=C/c2ccc(Cl)c(Cl)c2)C1 (stereo not drawn)"
  growth inhibition [%]: 7
- compound: "O=[N+]([O-])c1cccc2nc3ccccc3c(NCCC[N+]3([O-])CCOCC3)c12"
  growth inhibition [%]: 1
- compound: "CNC(=O)OCc1c(COC(=O)NC)c(C)n(-c2ccc(Cl)c(Cl)c2)c1C"
  growth inhibition [%]: -35
- compound: "Cc1ccc2oc(-c3cccc(N)c3)nc2c1"
  growth inhibition [%]: -6

Input line: Quickly give me recorded growth inhibition for COC1=C(N=[N+]=[N-])C(=O)c2ncccc2C1=O
Output line: 10

Input line: State its growth inhibition for this compound: c1ccc(N/N=C2\CC(c3ccccc3)Oc3ccccc32)cc1 (stereo not drawn)
Output line: -3

Input line: Could you please provide reported growth inhibition for Cc1ccc(Cl)c2c(=O)c3ccccc3[nH]c12 ? Thanks!
Output line: -2

Input line: Please report the measured growth inhibition for CC1C=CN(N(C)C)C2=C1C(=O)c1cnccc1C2=O (stereo not drawn)
Output line: -31

Input line: Item CCCCCC(=O)C(C)(c1nc2n(c1O)/C(=N/C(=O)Nc1ccc(Cl)cc1)N=N2)c1nc2n(c1O)/C(=N/C(=O)Nc1ccc(Cl)cc1)N=N2 : provide growth inhibition
Output line: 2

Input line: Entry c1cc2ccc3cc4ncccc4c4ccc(c1)c2c34 needs its growth inhibition filled in; supply it.
Output line: -2

Input line: Give the measured growth inhibition for CCOC(=O)/C=C1\CCCn2c1ncc(C(=O)OCC)c2=O
Output line: 3

Input line: Annotate the compound CC(C)(C(=O)NN)c1ccccc1 with its measured growth inhibition.
Output line: 4

Input line: Please give measured growth inhibition of the following entry: COc1ccc(C(=O)NCCN(C)C)c2nc3ccccc3cc12
Output line: 7

Input line: Give reported growth inhibition value for CC(O)CN1C(=O)c2cccc3cc([N+](=O)[O-])cc(c23)C1=O (stereo not drawn)
Output line: -23

Input line: Fill in growth inhibition for record COc1ccc2nc3cccc([N+](=O)[O-])c3c(NCCCO)c2c1
Output line: 12

Input line: Give the reported value of growth inhibition for this record: O=C1OC(/C=C/c2ccccc2)Sc2ccccc21 (stereo not drawn)
Output line: -1

Input line: Give growth inhibition for O=S(=O)(O)CC[S][Sn]([S]CCS(=O)(=O)O)([c]1ccccc1)[c]1ccccc1
Output line: -7

Input line: For the compound CC(=O)CC[N+](C)(C)C , give its reported growth inhibition.
Output line: -29

Input line: Specify reported growth inhibition for the compound shown: CC(=O)O/N=C/c1c2ccccc2cc2ccccc12
Output line: -4

Input line: Specify reported growth inhibition for the compound shown: CCOC(=O)c1sc2[n+](c1C)C(=O)/C(=C/c1cc(OC)c(OC)c(OC)c1)S2
Output line: 9
